Biological target: Sigma 2 receptor
Experiment: Ability to inhibit [3H](+)-DTG binding to rat liver Sigma receptor type 2 in presence of dextrallorphan
Entries and their measured pKi follow.
For clarity, pKi is expressed as the negative log10 of concentration in mol/L.

Solved cases below.
> print(dat)
                                   molecule  target.or.system  readout.kind  obs.value
1  COc1ccc(/C=C2/C(=O)CC3(c4cccc(O)c4)CCN(C)C2C3)cc1 (stereo in doubt; 4)  Sigma 2 receptor           pKi       7.46
2  CN1CCC2(c3cccc(O)c3)CC(=O)/C(=C/c3ccc(I)cc3)C1C2 (single isomer, unassigned; (+))  Sigma 2 receptor           pKi       7.28
3  CN1CCC2(c3cccc(O)c3)CC(=O)/C(=C/c3ccc(Cl)cc3)C1C2 (stereo in doubt; 5)  Sigma 2 receptor           pKi       8.02
4  COc1ccc(/C=C2/C(=O)CC3(c4cccc(O)c4)CCN(C)C2C3)cc1 (single isomer, unassigned; (+))  Sigma 2 receptor           pKi       7.67
5  COc1cccc(/C=C2/C(=O)CC3(c4cccc(O)c4)CCN(C)C2C3)c1 (stereo in doubt; 6)  Sigma 2 receptor           pKi       7.35

Look up and state reported pKi for COc1ccc(/C=C2/C(=O)CC3(c4cccc(O)c4)CCN(C)C2C3)cc1 (single isomer, unassigned; (-)) 7.09

Answer with reported pKi of COc1cccc(C23CCN(C)C(C2)/C(=C\c2ccccc2)C(=O)C3)c1 (stereo in doubt; 10) 7.09

Supply reported pKi belonging to this molecule: CN1CCC2(c3cccc(O)c3)CC(=O)CC1C2 (stereo in doubt; (-)-1) 7.60

Identify pKi associated with the molecule CN1CCC2(c3cccc(O)c3)CC(=O)/C(=C/c3cccc(Cl)c3)C1C2 (stereo in doubt; (+)-7) 7.65

Give the value of pKi reported for the following: CN1CCC2(c3cccc(O)c3)CC(=O)/C(=C/c3ccc(Cl)c(Cl)c3)C1C2 (single isomer, unassigned; (+)) 7.87

* * *

Molecular target: Delta-type opioid receptor (Rattus norvegicus, UniProt P33533)
Sequence (P33533 whole entry): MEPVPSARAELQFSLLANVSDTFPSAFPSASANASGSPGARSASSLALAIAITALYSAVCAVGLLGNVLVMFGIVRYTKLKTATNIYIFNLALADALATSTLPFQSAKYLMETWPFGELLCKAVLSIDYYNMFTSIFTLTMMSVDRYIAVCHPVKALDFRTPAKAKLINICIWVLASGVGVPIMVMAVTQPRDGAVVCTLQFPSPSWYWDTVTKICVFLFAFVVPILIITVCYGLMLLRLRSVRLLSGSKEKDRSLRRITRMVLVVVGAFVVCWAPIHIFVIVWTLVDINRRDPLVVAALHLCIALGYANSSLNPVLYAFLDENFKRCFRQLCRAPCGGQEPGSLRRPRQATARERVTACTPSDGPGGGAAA
Assay: Ability to inhibit [3H]DADLE binding to rat brain delta receptor
pKi: −log10 of the molar value.
readout.kind: pKi

> print(dat)
                                   compound  obs.value
1  COc1ccc(/C=C2/C(=O)CC3(c4cccc(O)c4)CCN(C)C2C3)cc1 (single isomer, unassigned; (-))     < 6.30
2  COc1cccc(/C=C2/C(=O)CC3(c4cccc(O)c4)CCN(C)C2C3)c1 (stereo in doubt; 6)     < 6.40
3  CN1CCC2(c3cccc(O)c3)CC(=O)/C(=C/c3ccc(Cl)c(Cl)c3)C1C2 (single isomer, unassigned; (-))     < 6.30

Pending compound:
Please give the documented pKi of COc1cccc(C23CCN(C)C(C2)/C(=C\c2ccccc2)C(=O)C3)c1 (stereo in doubt; 10) < 6.30

* * *

Parameter pKi: see the listing below.
Molecular target: Mu-type opioid receptor (Rattus norvegicus, UniProt P33535)
Sequence (P33535 whole entry): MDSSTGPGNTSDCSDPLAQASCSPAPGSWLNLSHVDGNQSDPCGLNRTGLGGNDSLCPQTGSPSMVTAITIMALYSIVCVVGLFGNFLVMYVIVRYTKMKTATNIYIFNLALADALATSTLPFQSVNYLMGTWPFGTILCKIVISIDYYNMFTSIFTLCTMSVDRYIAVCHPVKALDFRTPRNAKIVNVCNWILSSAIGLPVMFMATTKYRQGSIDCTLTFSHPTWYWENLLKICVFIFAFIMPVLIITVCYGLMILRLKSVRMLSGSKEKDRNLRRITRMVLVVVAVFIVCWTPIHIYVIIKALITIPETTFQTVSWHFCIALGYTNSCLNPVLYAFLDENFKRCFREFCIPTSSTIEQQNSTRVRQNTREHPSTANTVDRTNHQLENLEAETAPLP
Test: Ability to inhibit [3H]DAMGO binding to rat brain Opioid receptor mu 1
Please report pKi as the negative decimal logarithm of the molar concentration, giving only the number.

Write down pKi measured for item CN1CCC2(c3cccc(O)c3)CC(=O)/C(=C/c3cccc(I)c3)C1C2 (stereo unspecified) 8.04
